Assayed system: Aβ42 (Homo sapiens)
Run description: Th-T (thioflavin-T) assay of Aβ42 aggregation
Assay type: biochemical
Condition parameters: Supplementary Fig. 47; reading M144
Readout: Th-T fluorescence, mean of three wells
# respond with the number and nothing more

In the examples that follow, each entry is paired with its recorded Th-T fluorescence, mean of three wells.
- Compound: "C=C1CCC2C(C)(CC(=O)C=C(C)C)C(O)CCC2(C)C1Cc1c(OC)oc(CO)c(C)c1=O (stereo not drawn) [Compound 19]"
  Th-T fluorescence, mean of three wells: 3.573
- Compound: "C=C1CC[C@H]2[C@]3(C)C[C@@H](C=C(C)C)O[C@H]3CC[C@]2(C)[C@@H]1Cc1c(O)c(C)c(C)oc1=O [Compound 5, subglutinol A]"
  Th-T fluorescence, mean of three wells: 2.617
- Compound: "CC(C)=CCC/C(C)=C/CC/C(C)=C/CC/C(C)=C/Cc1c(O)c(C)c(C)oc1=O [Compound 2]"
  Th-T fluorescence, mean of three wells: 2.932
- Compound: "C=C1CC[C@H]2[C@]3(C)C[C@H](C=C(C)C)O[C@H]3CC[C@]2(C)[C@@H]1Cc1c(OC)oc(C)c(C)c1=O [Compound 24]"
  Th-T fluorescence, mean of three wells: 3.8288
- Compound: "C=C1CCC2C(C)(CC(=O)C=C(C)C)C(O)CCC2(C)C1Cc1c(O)c(C)c(C)oc1=O (stereo not drawn) [Compound 7]"
  Th-T fluorescence, mean of three wells: 3.432

Lab note: next compound to report on.
// Th-T fluorescence, mean of three wells lookup, key: C=C1CC[C@@H]2[C@](C)(CC[C@H]3O[C@H](C=C(C)C)C[C@@]23C)[C@@H]1Cc1c(O)c(C)c(C)oc1=O [Compound 10, higginsianin A]
2.949

###

Measured Th-T fluorescence, mean of three wells, listed per entry.
Assayed system: Aβ42 (Homo sapiens, UniProt P05067)
Sequence (P05067 672-713): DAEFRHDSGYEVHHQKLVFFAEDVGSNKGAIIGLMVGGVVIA
Run description: Th-T (thioflavin-T) assay of Aβ42 aggregation
Format: biochemical
Condition parameters: Aβ42 aggregation time course, reading M130
# respond with the number and nothing more

In the examples that follow, each entry is paired with its recorded Th-T fluorescence, mean of three wells.
- Compound: "C=C1CCC2C(C)(CCC=C(C)C)C(O)CCC2(C)C1Cc1c(O)c(C)c(C)oc1=O (stereo not drawn) [Compound 9, higginsianin B]"
  Observed measurement: 2.772
- Compound: "C=C1CC[C@H]2[C@]3(C)C[C@@H](C=C(C)C)O[C@H]3CC[C@]2(C)[C@@H]1Cc1c(O)c(C)c(C)oc1=O"
  Observed measurement: 2.649

Lab note: next compound to report on.
// Th-T fluorescence, mean of three wells lookup, key: "C=C1CC[C@@H]2[C@](C)(CC[C@H]3O[C@H](C=C(C)C)C[C@@]23C)[C@@H]1Cc1c(OC)oc(CO)c(C(=O)OC)c1=O"
1.048

###

Assayed system: UniProt:P05067
Run description: Th-T (thioflavin-T) assay of Aβ42 aggregation
Type: biochemical
Condition parameters: column suffix _20; reading M104
Measured Fig. 7a Th-T reading, mean of three wells, listed per entry.
# respond with the number and nothing more

- Compound: "C=C1CCC2C(C)(CCC=C(C)C)C(O)CCC2(C)C1Cc1c(OC)oc(C)c(C(=O)OC)c1=O (centres unmarked) [Compound 14]"
  Observed measurement: 1.726
- Compound: "C=C1CC[C@@H]2[C@](C)(CC[C@H]3O[C@H](C=C(C)C)C[C@@]23C)[C@@H]1Cc1c(OC)oc(CO)c(C)c1=O [Compound 20]"
  Observed measurement: 3.246
- Compound: "C=C1CCC2C(C)(CCC=C(C)C)C(O)CCC2(C)C1Cc1c(OC)oc(CO)c(C(=O)OC)c1=O (centres unmarked) [Compound 13]"
  Observed measurement: 1.043
- Compound: "C=C1CC[C@@H]2[C@](C)(CC[C@H]3O[C@H](C=C(C)C)C[C@@]23C)[C@@H]1Cc1c(OC)oc(CO)c(C(=O)OC)c1=O [Compound 21]"
  Observed measurement: 0.9595

Lab note: next compound to report on.
// Fig. 7a Th-T reading, mean of three wells lookup, key: C=C1CCC2C(C)(CCC=C(C)C)C(O)CCC2(C)C1Cc1c(OC)oc(CO)c(C)c1=O (centres unmarked) [Compound 12]
2.11
